Tested on: BJ
Experiment: Cytotoxicity against human BJ cells assessed as growth inhibition after 48 hrs by MTT assay
Assay type: cell-based
Measured endpoint: IC50 (µM)

> print(dat)
                         chemical.structure  test.value
1  COc1ccc2c(/C=C(\C)C(=O)c3cc(OC)c(OC)c(OC)c3)c[nH]c2c1        8.92

###

The reader will find reported remaining at 2 h values listed item by item below.
Assay: Metabolic stability in Sprague-Dawley rat liver microsomes assessed as compound remaining at 120 mins in presence of NADPH regenerating system by HPLC method
Format: ADME
Conditions: read-out: Stability
Measured endpoint: remaining at 2 h (%)

> print(dat)
                         chemical.structure  test.value
1  COc1ccc2c(/C=C(\C)C(=O)c3cc(OC)c(OC)c(OC)c3)c[nH]c2c1        66.3
2    COc1ccc(/C=C\c2cc(OC)c(OC)c(OC)c2)cc1O        20.7
